These data points were gathered from PubChem BioAssay (NCI).

System: EKVX NSCLC
PROTOCOL DETAILS: NCI tumour cell line growth inhibition, 48 h
Listed next: entries and their corresponding TGI.

>  <COMPOUND>
C/C(=C\COP(=O)(O)OP(=O)(O)O)CCCCCCOCc1ccccc1

>  <TGI>
> 100 µM

$$$$
>  <COMPOUND>
O=C1c2ccccc2C(=O)N1CCCOCc1c[nH]c(=O)[nH]c1=O

>  <TGI>
> 100 µM

$$$$
>  <COMPOUND>
CN1CCC2(CC1)N=C(SCC(=O)Nc1cnc3ccccc3c1)C(c1ccc(Br)cc1)=N2

>  <TGI>
10.2 µM

$$$$
>  <COMPOUND>
COC(=O)[C@@H]1CN(C(=O)CCc2ccccc2)C(=O)N1

>  <TGI>
> 100 µM

$$$$
>  <COMPOUND>
Clc1sc(Cl)c2c1[C@H](Cl)C[C@@H]2Cl

>  <TGI>
> 100 µM

$$$$

Returns the measured TGI for the input compound. Input: CC12OC(CC(O)C1O)n1c3ccccc3c3c4c(c5c6ccccc6n2c5c31)C(=O)N(CCN1CCOCC1)C4=O (configuration not stated)
8.94 µM

Returns the measured TGI for the input compound. Input: O=Cc1cn(CCCCCCCCn2cc(C=O)c3ccccc32)c2ccccc12
> 10 µM

Returns the measured TGI for the input compound. Input: O=C1CSC(c2ccccc2O)N1c1ccc2c(c1)Oc1c(Cl)c3c(c(Cl)c1=N2)Oc1cc(N2C(=O)CSC2c2ccccc2O)ccc1N=3 (configuration not stated)
> 100 µM

Returns the measured TGI for the input compound. Input: CC(=O)OCC1OC(n2c(C)c(C(C)=O)c(-c3ccco3)c(C#N)c2=S)C(OC(C)=O)C(OC(C)=O)C1OC(C)=O (configuration not stated)
> 100 µM

Returns the measured TGI for the input compound. Input: N#C/C(=C\c1c(O)cc(O)cc1O)C(N)=O
> 100 µM

Returns the measured TGI for the input compound. Input: C=C1C(=O)O[C@H](c2ccoc2)C[C@@H]1[C@@]1(C)CCCC2(C)C(=O)OCC21 (some centres not stated)
> 100 µM

Returns the measured TGI for the input compound. Input: C=C1CN=C(Nc2ccc(Cl)cc2)S1
> 100 µM

Returns the measured TGI for the input compound. Input: CNC(=O)ON(C(C)=O)C(=O)NC
241 µM

Returns the measured TGI for the input compound. Input: CC1(c2ccccc2)O[C@@H]2C[C@H]3[C@@H]4CCC5=CC(=O)C=C[C@]5(C)[C@@]4(F)[C@@H](O)C[C@]3(C)[C@]2(C(=O)CO)O1 (some centres not stated)
30.4 µM

Returns the measured TGI for the input compound. Input: O=c1[nH]c(=O)c2c([nH]1)[nH]c1ccc(Br)cc12
> 100 µM

Returns the measured TGI for the input compound. Input: Oc1ccc2c(=S)cc(-c3ccc(Br)cc3)oc2c1O
56.6 µM

Returns the measured TGI for the input compound. Input: C=C(C)[C@H]1CC[C@@]23O[C@@H]2[C@@H](C[C@@]2(C)CC(=O)[C@H](CC(=O)C1)O2)OC(=O)[C@@]12CC[C@H](C(=C)C)CC(=O)C[C@H]4O[C@](C)(CC4=O)C[C@@H](OC3=O)[C@@H]1O2
> 100 µM

Returns the measured TGI for the input compound. Input: CCOC(=O)C1=C(C)NC(=O)NC1c1ccc(OC)cc1OC (configuration not stated)
> 100 µM

Returns the measured TGI for the input compound. Input: CCOC(=O)c1ncn(CCc2ccc(Cl)cc2)c1C
> 100 µM

Returns the measured TGI for the input compound. Input: COC(=O)c1c[nH]c2cc(OC(C)C)c(OC(C)C)cc2c1=O
> 100 µM

Returns the measured TGI for the input compound. Input: CC(=O)[O-].CC(=O)[O-].O=C(N/N=C/c1cc(Cl)cc(Cl)c1[OH2+])c1ccncc1.[Mn+2]
7.76 µM

Returns the measured TGI for the input compound. Input: CN(C)NC1=C([N+](=O)[O-])C=NN(c2ccccc2)C1
3.52 µM
